system-tested: Glycogen synthase kinase-3 alpha (Homo sapiens) (UniProt P49840)
Sequence (P49840 2-483 limits assumed): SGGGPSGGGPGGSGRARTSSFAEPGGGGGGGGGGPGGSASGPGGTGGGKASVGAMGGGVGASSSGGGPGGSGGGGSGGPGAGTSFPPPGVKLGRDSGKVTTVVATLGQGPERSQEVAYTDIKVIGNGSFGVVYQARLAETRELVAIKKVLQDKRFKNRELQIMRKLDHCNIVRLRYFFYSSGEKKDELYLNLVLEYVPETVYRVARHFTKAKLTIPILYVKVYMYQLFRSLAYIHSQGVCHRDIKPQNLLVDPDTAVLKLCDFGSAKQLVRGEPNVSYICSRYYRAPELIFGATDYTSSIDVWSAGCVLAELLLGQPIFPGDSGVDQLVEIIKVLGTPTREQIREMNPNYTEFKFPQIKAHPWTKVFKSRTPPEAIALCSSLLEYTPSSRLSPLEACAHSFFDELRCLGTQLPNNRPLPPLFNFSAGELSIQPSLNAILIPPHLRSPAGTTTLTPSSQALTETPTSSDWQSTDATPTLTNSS
assay-remarks: Inhibition of human GSK3alpha relative to control; values are per cent of control
Measured residual activity by item

input-smiles: CN(C)c1nc2ccc1CCCn1cc(c3ccccc31)C1=C(C(=O)NC1=O)c1cn(c3ccccc13)CC2
residual activity, %: 4

input-smiles: CN(C)c1cc2cc(n1)CCCn1cc(c3ccccc31)C1=C(C(=O)NC1=O)c1cn(c3ccccc13)CCC2
residual activity, %: 3

input-smiles: O=C1NC(=O)C2=C1c1cn(c3ccccc13)CCCc1ccc(c(N3CCCC3)n1)CCCn1cc2c2ccccc21
residual activity, %: 9

input-smiles: O=C1NC(=O)C2=C1c1cn(c3ccccc13)CCCc1cc(nc(N3CCCC3)c1)CCCn1cc2c2ccccc21
residual activity, %: 4
